Hello, the source for this data is ChEMBL document CHEMBL3872242, in case you need it.

# pIC50 listing for each entry below
- protocol_text: Inhibition of NF-kappaB (unknown origin) expressed in LPS/INF-gamma-stimulated human MONO-MAC-6 cells measured after 4 hrs by luciferase reporter gene assay
- Type: cell-based
- setup_conditions: MONO-MAC-6, 4 h
pIC50: −log10 of the molar value.

Sample records with pIC50:
-- ask Bench note: what pIC50 did C=C[C@H]1CC[C@]23C[C@@H]4[C@H](C)[C@@H](O)[C@H]5O[C@@]45[C@@]2(C)CC(=O)[C@]13C show?
-- reply < 4.30

-- ask Request: CC(C)[C@H]1CC[C@]23C[C@@H]4[C@H](C)C(=O)[C@H]5O[C@]54[C@@]2(C)CC(=O)[C@]13C
-- reply 6.40 to 6.49

-- ask Lookup CC(C)[C@H]1CC[C@]23C[C@@H]4[C@H](C)C(=O)[C@H]5O[C@]54[C@@]2(C)[C@@H](O)C(=O)[C@]13C
-- reply 4.60 to 4.70

Could you now consider this next molecule?
-- ask Returns the measured pIC50 for the input molecule. Input: C=C[C@H]1CC[C@]23C[C@@H]4[C@H](C)C(=O)[C@H]5O[C@]54[C@@]2(C)C[C@H](O)[C@]13C
-- reply 5.52 to 5.57

====

- protocol_text: Cytotoxicity against human MONO-MAC-6 cells up to 50 uM measured after 24 hrs by XTT assay
- Assay type: toxicity, cell-based
- setup_conditions: mono-mac-6, 24 h
measurement_label: Activity

-- ask Which Activity is reported for this compound? CC(C)[C@H]1CC[C@]23C[C@@H]4[C@H](C)C(=O)[C@H]5O[C@]54[C@@]2(C)CC(=O)[C@]13C
-- reply Non-Toxic

-- ask And then C=C[C@H]1CC[C@]23C[C@@H]4[C@H](C)[C@@H](O)[C@H]5O[C@@]45[C@@]2(C)CC(=O)[C@]13C , what is it?
-- reply Non-Toxic

-- ask Next compound up: CC(C)[C@H]1CC[C@]23C[C@@H]4[C@H](C)C(=O)[C@H]5O[C@]54[C@@]2(C)[C@@H](O)C(=O)[C@]13C
-- reply Non-Toxic

-- ask Query C=C[C@H]1CC[C@]23C[C@@H]4[C@H](C)C(=O)[C@H]5O[C@]54[C@@]2(C)C[C@H](O)[C@]13C next
-- reply Non-Toxic

====

- Tested on: MONO-MAC-6
- protocol_text: Inhibition of human THP1 cells derived IL-8 promoter dependent transcription activity expressed in LPS/INF-gamma stimulated human MONO-MAC-6 cells measured after 4 hrs by luciferase reporter gene assay
- Format: functional, cell-based
- setup_conditions: MONO-MAC-6, 4 h
pIC50: −log10 of the molar value.
measurement_label: pIC50

Completed entries (count: 3):
-- ask For the compound shown here, CC(C)[C@H]1CC[C@]23C[C@@H]4[C@H](C)C(=O)[C@H]5O[C@]54[C@@]2(C)[C@@H](O)C(=O)[C@]13C , give the reported pIC50.
-- reply 5.12 to 5.15

-- ask Would you mind doing CC(C)[C@H]1CC[C@]23C[C@@H]4[C@H](C)C(=O)[C@H]5O[C@]54[C@@]2(C)CC(=O)[C@]13C as well?
-- reply 5.92 to 6.05

-- ask What do we get for C=C[C@H]1CC[C@]23C[C@@H]4[C@H](C)C(=O)[C@H]5O[C@]54[C@@]2(C)C[C@H](O)[C@]13C ?
-- reply 5.82 to 5.89

More entries:
-- ask I have this compound here, C=C[C@H]1CC[C@]23C[C@@H]4[C@H](C)[C@@H](O)[C@H]5O[C@@]45[C@@]2(C)CC(=O)[C@]13C , and I need its recorded pIC50.
-- reply < 4.30
